Entry source: ChEMBL document CHEMBL1140445

# test system: Guanine nucleotide-binding protein G(i) subunit alpha-1 (Homo sapiens)
# Sequence (P63096 whole entry): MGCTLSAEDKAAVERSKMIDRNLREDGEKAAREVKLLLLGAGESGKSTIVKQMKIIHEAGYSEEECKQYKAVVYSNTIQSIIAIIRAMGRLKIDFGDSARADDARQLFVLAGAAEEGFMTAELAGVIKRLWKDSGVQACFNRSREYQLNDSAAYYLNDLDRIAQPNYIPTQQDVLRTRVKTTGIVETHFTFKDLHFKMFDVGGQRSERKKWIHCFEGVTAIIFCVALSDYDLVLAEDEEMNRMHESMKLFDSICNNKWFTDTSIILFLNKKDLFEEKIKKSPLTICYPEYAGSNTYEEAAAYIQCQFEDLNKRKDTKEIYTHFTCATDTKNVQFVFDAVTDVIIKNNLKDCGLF
# test: Concentration required to stimulate binding of [35S]GTP-gamma-S, with G alpha i1
outcome measure: pEC50
Convention used: pEC50 is expressed as -log10 of the molar concentration.

# compound `CCCCCCCCCCCCCCCNN1CCNCC1` ; its pEC50 = 4.80

# compound `CCCCCCCCCCCCCCC(=O)NN1CCNCC1` ; its pEC50 = 4.41

# compound `CCCCCCCCCCCCCCC(=O)N1CCC(CCC2CCN(C)CC2)CC1` ; its pEC50 = 4.70

# compound CCCCCCCCCCCCCCC[N+]1(C)CCC(C2CCNCC2)CC1 (configuration not stated) ; its pEC50 = 4.83

# compound `CCCCCCCCCCCCCCCN1CCC(CCC2CCNCC2)CC1` ; its pEC50 = 3.35

# compound `CCCCCCCCCCCCC(=O)N1CCC(C2CCNCC2)CC1` ; its pEC50 = 4.75

# compound `CCCCCCCCCCCCCN1CCC(C2CCNCC2)CC1` ; its pEC50 = 4.68
